Value source: patent US20240317748A1

System: MV-4-11 cells
assay-explanation: Cell proliferation assay (CellTiter-Glo), MV-4-11
Assay type: cell-based, human
experimental-conditions: Homo sapiens, MV4-11, 96 h; MV-4-11 (MLL-AF4), 4 days incubation; read-out: Cell antiproliferation assay MV-4-11 IC50
metric: IC50 (nM)

The following compounds have reported results that may help.
compound	uom	IC50
CCN(C(=O)c1cc(F)ccc1Oc1cncnc1N1CC2(CCN(C(=O)[C@H]3NCc4c3cnn4Cc3ccccc3)CC2)C1)C(C)C	nM	30.7
CCN(C(=O)c1cc(F)ccc1Oc1nncnc1N1CC2(CCN(C(=O)[C@H]3NCC[C@@H]3C(F)F)CC2)C1)C(C)C [Example 99a]	nM	46.4
CCN(C(=O)c1cc(F)ccc1Oc1nncnc1N1CC2(CCN(C(=O)[C@@H]3C[C@@H](C)CN3)CC2)C1)C(C)C	nM	40.1
O=C([C@@H]1C[C@@H](F)CN1)N1CCC2(CC1)CN(c1ncnnc1Oc1ccc(F)cc1-c1cncnc1C1CC1)C2	nM	39.5
CCN(C(=O)c1cc(F)ccc1Oc1nncnc1N1CC2(CCN(C(=O)[C@H]3NCC[C@H]3C)CC2)C1)C(C)C	nM	43.4
COCCN(C(=O)c1cc(F)ccc1Oc1cncnc1N1CC2(CCN(C(=O)[C@@H]3C[C@@H](F)CN3)CC2)C1)C(C)C	nM	120

P: CCN(C(=O)c1cc(F)ccc1Oc1cncnc1N1CC2(CCN(C(=O)[C@@H]3C[C@]4(CN3)CC4(F)F)CC2)C1)C(C)C
Q: CCN(C(=O)c1cc(F)ccc1Oc1cncnc1N1CC2(CCN(C(=O)[C@@H]3CCCN3)CC2)C1)C(C)C
R: N#Cc1ccc(-c2cc(F)ccc2Oc2nncnc2N2CC3(CCN(C(=O)[C@H]4NC[C@@H]5CCC[C@@H]54)CC3)C2)c(C2CC2)n1
S: CCN(C(=O)c1cc(F)ccc1Oc1nncnc1N1CC2(CCN(C(=O)[C@H]3NCC[C@@H]3C3CC3)CC2)C1)C(C)C [Example 100a]
Please produce an ascending ranking of these compounds based on IC50. Order the labels as requested and list them.
R, S, Q, P

---

System: MV-4-11 cells
assay-explanation: Cell proliferation assay (CellTiter-Glo), MV-4-11
Assay type: cell-based, human
experimental-conditions: Homo sapiens, MV4-11, 96 h; MV-4-11 (MLL-AF4), 4 days incubation; read-out: Cell antiproliferation assay MV-4-11 IC50
metric: IC50 (nM)

The following compounds have reported results that may help.
compound	measured-value
CC(C)N(CC(F)F)C(=O)c1cc(F)ccc1Oc1cncnc1N1CC2(CCN(C(=O)[C@@H]3C[C@@H](F)CN3)CC2)C1 [Example 45]	36.1
CCN(C(=O)c1cc(F)ccc1Oc1cncnc1N1CC2(CCN(C(=O)[C@@H]3C[C@@H](c4ccccc4)CN3)CC2)C1)C(C)C [Example 48]	144
CCN(C(=O)c1cc(F)ccc1Oc1nncnc1N1CC2(CCN(C(=O)[C@@H]3NC[C@@H](C)[C@H]3C)CC2)C1)C(C)C [Example 93]	457
CCN(C(=O)c1cc(F)ccc1Oc1cncnc1N1CC2(CCN(C(=O)[C@@H]3C[C@H]4C[C@H]4N3)CC2)C1)C(C)C [Example 32]	75.4
CCN(C(=O)c1cc(F)ccc1Oc1nncnc1N1CC2(CCN(C(=O)[C@H]3NC[C@H]4[C@@H]3C4(C)C)CC2)C1)C(C)C (stereo in doubt) [Example 68]	13.8

1: CCN(C(=O)c1cc(F)ccc1Oc1cncnc1N1CC2(CCN(C(=O)[C@@H]3C[C@@H](F)CN3)CC2)C1)C1CC1 [Example 20]
2: CCN(C(=O)c1cc(F)ccc1Oc1cncnc1N1CC2(CCN(C(=O)[C@@H]3C[C@](F)(CF)CN3)CC2)C1)C(C)C [Example 12]
Please indicate which item has the smaller measured IC50: 1 versus 2 Answer = label.
2

P: CCN(C(=O)c1cc(F)ccc1Oc1nnc(Cl)nc1N1CC2(CCN(C(=O)[C@H]3NC[C@@H]4C[C@@H]43)CC2)C1)C(C)C [Example 91]
Q: CC(C)N(C(=O)c1cc(F)ccc1Oc1nncnc1N1CC2(CCN(C(=O)[C@H]3NCC[C@H]3C)CC2)C1)C(C)C [Example 76]
Please indicate which item has the smaller measured IC50: P versus Q Answer = label.
Q

a: CCN(C(=O)c1cc(F)ccc1Oc1nncnc1N1CC2(CCN(C(=O)[C@@H]3NCC[C@H]3C3CC3)CC2)C1)C(C)C [Example 100b]
b: CC(C)n1ncnc1-c1cc(F)ccc1Oc1cncnc1N1CC2(CCN(C(=O)[C@@H]3C[C@@H](F)CN3)CC2)C1 [Example 43]
Please indicate which item has the smaller measured IC50: a versus b Answer = label.
b
(b: 170 nM, a: 284 nM)

A: CCN(C(=O)c1cc(F)ccc1Oc1cncnc1N1CC2(CCN(C(=O)[C@@]3(C)CCCN3)CC2)C1)C(C)C [Example 29]
B: CCN(C(=O)c1cc(F)ccc1Oc1nncnc1N1CC2(CCN(C(=O)[C@H]3NCC[C@@H]3C)CC2)C1)C(C)C [Example 57]
Returns: the argument ( A or B ) having the larger IC50. Answer = label.
A
